target: Torsin-1A (Homo sapiens); experiment: torsin A binders from cell lysate, primary screen, small-molecule microarray, wild-type, 635/667 nm (AID 1149); conditions: COS7 hTOR1A-WT lysate, 635 nm fluorescence, higher = more signal
Reported composite z-score by item:
Respond numerically, and do not add a unit to the figure.

Illustrative cases are given below, each with its answer.
*Q* What value of composite z-score has been reported for the following molecule? CN1C(=O)C2CC=C(C3=CCO[C@@H]3[C@H]3CCCN3S(=O)(=O)c3ccccc3[N+](=O)[O-])CC2C1=O (stereo partly specified)
*A* -0.23

*Q* Returns the measured composite z-score for the input molecule. Input: "[N-]=[N+]=Nc1ccccc1C[C@]1(C(N)=O)COC(c2ccc(OCCCO)cc2)=N1"
*A* 0.517

*Q* What does the data say about its composite z-score? Entry: "COc1ccc(C(=O)Nc2cccc(CN3C(=O)[C@]4(O[C@H](CC(=O)N(CCO)Cc5ccccc5)[C@@H]([Si](C)(C)c5ccc(OC)cc5)[C@@H]4C)c4ccccc43)c2)cc1"
*A* 0.0401

*Q* Entry "CC(C)N1C(=O)[C@@]2(Cc3ccccc31)c1ccccc1C(=O)N(Cc1ccccc1C(F)(F)F)[C@H]2c1ccc(CO)cc1" has what composite z-score?
*A* -0.375

*Q* Entry CC[C@H]1C2=C3C(CC[C@H]4C(OCc5ccc(F)cc5C(F)(F)F)OC[C@](C)([C@@H]34)N(C(=O)OC(C)(C)C)C2)C(COC(C)=O)C1COC(C)=O (stereo partly specified) : reported composite z-score = ?
*A* 0.129

# next molecule below
*Q* Field request: composite z-score | item: "O=C1O[C@@H](c2ccccc2)[C@@H](c2ccccc2)N2[C@@H](c3ccccc3OCCO)[C@]3(C(=O)Nc4ccc(C#CC5(O)CCCCCC5)cc43)[C@@H](C(=O)N3CCCCCCC3)[C@H]12"
*A* 3.29
